Target system: human noradrenaline transporter (hNET) (Homo sapiens)
Construct: expressed in transfected cells; host or cells: COS-7 cells (ATCC), transient transfection with metafectene
Sequence (P23975 whole entry): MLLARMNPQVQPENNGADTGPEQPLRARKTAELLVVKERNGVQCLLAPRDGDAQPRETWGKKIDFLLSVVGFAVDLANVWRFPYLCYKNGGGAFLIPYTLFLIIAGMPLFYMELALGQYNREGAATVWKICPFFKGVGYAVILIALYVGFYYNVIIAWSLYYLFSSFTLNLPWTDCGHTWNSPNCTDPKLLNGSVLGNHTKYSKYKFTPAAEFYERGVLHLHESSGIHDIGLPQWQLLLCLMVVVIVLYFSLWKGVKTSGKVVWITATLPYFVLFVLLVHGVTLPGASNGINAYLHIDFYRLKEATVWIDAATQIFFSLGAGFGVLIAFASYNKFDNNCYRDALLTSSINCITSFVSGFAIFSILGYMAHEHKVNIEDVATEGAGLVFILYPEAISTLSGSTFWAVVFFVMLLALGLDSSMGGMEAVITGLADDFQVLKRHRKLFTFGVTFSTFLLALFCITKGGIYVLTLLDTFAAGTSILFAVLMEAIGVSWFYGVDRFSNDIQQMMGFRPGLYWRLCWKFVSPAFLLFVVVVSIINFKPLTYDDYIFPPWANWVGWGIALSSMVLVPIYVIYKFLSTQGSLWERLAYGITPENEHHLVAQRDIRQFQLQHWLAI
Assay method text: biochemical
Type: binding
Test parameters: Av IC50 Displacement of 3H-nisoxetine from hNET
pIC50: −log10 of the molar value. Residues, ends and D or L forms follow the SMILES beside them.

- Molecule: "CC(C)C[C@@H]1NC(=O)[C@H](Cc2ccc(O)cc2)NC(=O)CNC(=O)[C@@H]2CSSC[C@H](NC(=O)[C@H](CC(C)C)NC1=O)C(=O)N[C@@H](Cc1c[nH]cn1)C(=O)N1CCC[C@H]1C(=O)N[C@H](C(N)=O)CSSC[C@H](NC(=O)[C@@H](NC(=O)CNC(=O)[C@H](CC(N)=O)NC(=O)[C@@H](N)Cc1ccc(O)cc1)C(C)C)C(=O)N2 [compound 174] (HELM PEPTIDE1{Y.N.G.V.C.C.G.Y.L.L.C.H.P.C.[am]}$PEPTIDE1,PEPTIDE1,5:R3-14:R3|PEPTIDE1,PEPTIDE1,6:R3-11:R3$$$V2.0)"
  pIC50: 4.76
- Molecule: "CC(C)C[C@@H]1NC(=O)[C@H](CCCCN)NC(=O)[C@H](CCCCN)NC(=O)CNC(=O)[C@@H]2CSSC[C@H](NC1=O)C(=O)N[C@@H](Cc1c[nH]cn1)C(=O)N1CCC[C@H]1C(=O)N[C@H](C(N)=O)CSSC[C@H](NC(=O)[C@@H](NC(=O)CNC(=O)[C@H](CC(N)=O)NC(=O)[C@@H](N)Cc1ccc(O)cc1)C(C)C)C(=O)N2 [compound 201] (HELM PEPTIDE1{Y.N.G.V.C.C.G.K.K.L.C.H.P.C.[am]}$PEPTIDE1,PEPTIDE1,5:R3-14:R3|PEPTIDE1,PEPTIDE1,6:R3-11:R3$$$V2.0)"
  pIC50: 3.36
- Molecule: "CC(C)C[C@@H]1NC(=O)[C@H](CCCCN)NC(=O)[C@H](Cc2ccc(O)cc2)NC(=O)CNC(=O)[C@@H]2CSSC[C@H](NC1=O)C(=O)N[C@@H](Cc1c[nH]cn1)C(=O)N[C@@H](Cc1ccccc1)C(=O)N[C@H](C(N)=O)CSSC[C@H](NC(=O)[C@@H](NC(=O)CNC(=O)[C@@H](N)CC(N)=O)C(C)C)C(=O)N2 [compound 155]"
  pIC50: 5.39
- Molecule: "CC(C)C[C@@H]1NC(=O)[C@H](Cc2c[nH]cn2)NC(=O)[C@H](Cc2ccc(O)cc2)NC(=O)CNC(=O)[C@@H]2CSSC[C@H](NC1=O)C(=O)N[C@@H](Cc1c[nH]cn1)C(=O)N1CCC[C@H]1C(=O)N[C@H](C(N)=O)CSSC[C@H](NC(=O)[C@@H](NC(=O)CNC(=O)[C@@H](N)CC(N)=O)C(C)C)C(=O)N2 [compound 181] (HELM PEPTIDE1{N.G.V.C.C.G.Y.H.L.C.H.P.C.[am]}$PEPTIDE1,PEPTIDE1,4:R3-13:R3|PEPTIDE1,PEPTIDE1,5:R3-10:R3$$$V2.0)"
  pIC50: 4.32
- Molecule: "CC(C)C[C@@H]1NC(=O)[C@H](CCCCN)NC(=O)[C@H](CCC(=O)O)NC(=O)CNC(=O)[C@@H]2CSSC[C@H](NC1=O)C(=O)N[C@@H](Cc1c[nH]cn1)C(=O)N1CCC[C@H]1C(=O)N[C@H](C(N)=O)CSSC[C@H](NC(=O)[C@@H](NC(=O)CNC(=O)[C@H](CC(N)=O)NC(=O)[C@@H](N)Cc1ccc(O)cc1)C(C)C)C(=O)N2 [compound 195] (HELM PEPTIDE1{Y.N.G.V.C.C.G.E.K.L.C.H.P.C.[am]}$PEPTIDE1,PEPTIDE1,5:R3-14:R3|PEPTIDE1,PEPTIDE1,6:R3-11:R3$$$V2.0)"
  pIC50: 3.77
- Molecule: "CC(C)C[C@@H]1NC(=O)[C@H](CCCCN)NC(=O)[C@H](Cc2ccc(O)cc2)NC(=O)CNC(=O)[C@@H]2CSSC[C@H](NC1=O)C(=O)N[C@@H](Cc1c[nH]cn1)C(=O)N1CCC[C@H]1C(=O)N[C@H](C(N)=O)CSSC[C@H](NC(=O)[C@@H](NC(=O)CNC(=O)[C@H](CC(N)=O)NC(=O)[C@@H](N)Cc1ccc(O)cc1)C(C)C)C(=O)N2 [compound 116]"
  pIC50: 5.95
- Molecule: "CC(C)C[C@@H]1NC(=O)CNC(=O)[C@@H]2CSSC[C@H](NC(=O)[C@H](CC(C)C)NC(=O)[C@H](CCCCN)NC1=O)C(=O)N[C@@H](Cc1c[nH]cn1)C(=O)N1CCC[C@H]1C(=O)N[C@H](C(N)=O)CSSC[C@H](NC(=O)[C@@H](NC(=O)CNC(=O)[C@H](CC(N)=O)NC(=O)[C@@H](N)Cc1ccc(O)cc1)C(C)C)C(=O)N2 [compound 171] (HELM PEPTIDE1{Y.N.G.V.C.C.G.L.K.L.C.H.P.C.[am]}$PEPTIDE1,PEPTIDE1,5:R3-14:R3|PEPTIDE1,PEPTIDE1,6:R3-11:R3$$$V2.0)"
  pIC50: 4.97
- Molecule: "CC(C)C[C@@H]1NC(=O)[C@H](CCCCN)NC(=O)[C@H](Cc2ccc(O)cc2)NC(=O)CNC(=O)[C@@H]2CSSC[C@H](NC1=O)C(=O)N[C@@H](Cc1c[nH]cn1)C(=O)N1CCC[C@H]1C(=O)N[C@H](C(N)=O)CSSC[C@H](NC(=O)[C@@H](NC(=O)CNC(=O)[C@@H](N)CC(=O)O)C(C)C)C(=O)N2 [compound 151]"
  pIC50: 5.45
- Molecule: "CC(C)C[C@@H]1NC(=O)[C@H](CCCCN)NC(=O)[C@H](Cc2ccc(O)cc2)NC(=O)CNC(=O)[C@@H]2CSSC[C@H](NC1=O)C(=O)N[C@@H](Cc1c[nH]cn1)C(=O)N1CCC[C@H]1C(=O)N[C@H](C(N)=O)CSSC[C@H](NC(=O)[C@@H](NC(=O)CNC(=O)[C@@H](N)CC(N)=O)C(C)C)C(=O)N2 [compound 146]"
  pIC50: 5.51
- Molecule: "CC(C)C[C@@H]1NC(=O)[C@H](CCCCN)NC(=O)[C@H](Cc2ccc(O)cc2)NC(=O)CNC(=O)[C@@H]2CSSC[C@H](NC1=O)C(=O)N[C@@H](CCCNC(=N)N)C(=O)N[C@@H](C)C(=O)N[C@H](C(N)=O)CSSC[C@H](NC(=O)[C@@H](NC(=O)CNC(=O)[C@H](CCCNC(=N)N)NC(=O)[C@@H](N)Cc1c[nH]c3ccccc13)C(C)C)C(=O)N2 [compound 38]"
  pIC50: 6.99

====

IC50 by entry:
Target system: human noradrenaline transporter (hNET) (Homo sapiens)
Construct: expressed in transfected cells; host or cells: COS-7 cells (ATCC), transient transfection with metafectene
Assay method text: cell-based
Residues, ends and D or L forms follow the SMILES beside them.

- Compound: "CC(C)C[C@@H]1NC(=O)[C@H](CCCCN)NC(=O)[C@H](Cc2ccc(O)cc2)NC(=O)CNC(=O)[C@@H]2CSSC[C@H](NC1=O)C(=O)N[C@@H](Cc1c[nH]cn1)C(=O)N1CCC[C@H]1C(=O)N[C@H](C(N)=O)CSSC[C@H](NC(=O)[C@@H](NC(=O)CNC(=O)[C@@H](N)CC(N)=O)C(C)C)C(=O)N2"
  Target system: "human noradrenaline transporter (hNET) (Homo sapiens)"
  Unit of measurement: "nM"
  IC50: 741
- Compound: "CC(C)C[C@@H]1NC(=O)[C@H](CCCCN)NC(=O)[C@H](Cc2ccc(O)cc2)NC(=O)CNC(=O)[C@@H]2CSSC[C@H](NC1=O)C(=O)N[C@@H](CCCNC(=N)N)C(=O)N1CCC[C@H]1C(=O)N[C@H](C(N)=O)CSSC[C@H](NC(=O)[C@@H](NC(=O)CNC(=O)[C@H](CC(N)=O)NC(=O)[C@@H](N)Cc1ccc(O)cc1)C(C)C)C(=O)N2"
  Target system: "human noradrenaline transporter (hNET) (Homo sapiens)"
  Unit of measurement: "nM"
  IC50: 112
- Compound: "CC(C)C[C@@H]1NC(=O)[C@H](CCCCN)NC(=O)[C@H](Cc2ccc(O)cc2)NC(=O)CNC(=O)[C@@H]2CSSC[C@H](NC1=O)C(=O)N[C@@H](Cc1c[nH]c3ccccc13)C(=O)N1CCC[C@H]1C(=O)N[C@H](C(N)=O)CSSC[C@H](NC(=O)[C@@H](NC(=O)[C@H](CC(=O)O)NC(=O)[C@H](CCCCN)NC(=O)[C@@H](N)Cc1c[nH]c3ccccc13)C(C)C)C(=O)N2 [compound 92] (HELM PEPTIDE1{W.K.D.V.C.C.G.Y.K.L.C.W.P.C.[am]}$PEPTIDE1,PEPTIDE1,5:R3-14:R3|PEPTIDE1,PEPTIDE1,6:R3-11:R3$$$V2.0)"
  Target system: "human noradrenaline transporter (hNET) (Homo sapiens)"
  Unit of measurement: "nM"
  IC50: 36.3
